Tested on: MS2 coat protein
EXPERIMENT_DESCRIPTION: apparent KD of MS2 coat protein, switch ON state; designed switch direction (-1 OFF switch, 1 ON switch): -1; higher = weaker reporter binding
CONDITION_DETAILS: FMN input: 0 or 200 uM; Eterna round: R93 (includes R88 designs)
QUANTITY_MEASURED: apparent KD of MS2 coat protein (nM)
All answers are understood in nM, so give the number only.

Request: // fetch apparent KD of MS2 coat protein given entry AAAAAAGGAGGAUAUACGUACAUGUCAAAAGACGUGAAGGGACAUGAGGAUCACCCAUGUAGAAGGCCUAAAAA [JL Part Open 33]
Response: 45.2

Request: // fetch apparent KD of MS2 coat protein given entry CGUUUGUUAGGAUAUAGCCACAUUACGAAUAAGUAGUGUGGCUAGAAGGAACAUGAGGAUCACCCAUGUAUGGG [Exclusion 4.3 (AU closing FMN)]
Response: 110

Request: // fetch apparent KD of MS2 coat protein given entry AGAAAGUCAGGAUAUACAGAAAAAAAAACGAAAAAAAAUCUGUAGAAGGGACAUGAGGAUCACCCAUGUAAAGA [Mat - Exclusion 4 - Mayanna - D124]
Response: 66.1
